# Tested on: NCI-H226 lung
# ASSAY_TEXT: NCI-60 one-dose screen, 48 h
# TEST_CONDITIONS: 10 µM
# Procedure: Growth inhibition of the NCI-H226 human Non-Small Cell Lung tumor cell line is measured as a screen for anti-cancer activity. Cells are grown in 96 well plates and exposed to the test compound for 48 hours. Compounds are tested at a single concentration, which is 10^-5 M for most compounds. The reported endpoint is percent growth (GI% or GIPRCNT), where numbers from 0 - 100% represent growth inhibition, and numbers from -100% - 0 represent cell death. […]
This is part of a sample that, as a whole, favours compounds with a hit. Of some 83,000 tested, about 20% had one in any assay. The source made the active and inactive calls. The calls were made as follows: active = growth percent below 10; inactive = the rest.
Response enum: T for active, F for inactive

A selection of reference data follows.
{"MOLECULE": "CO[C@H]1CSS[C@@H]1Cn1nc(-c2ccc(Oc3ccccc3)cc2)c2c(N)ncnc21", "GROUP_LABEL": "F"}
{"MOLECULE": "C=C1CCC2C3(C)COC(c4cccc(F)c4)OC3CCC2(C)C1CC(O)C1=CCOC1=O (centres undefined)", "GROUP_LABEL": "F"}
{"MOLECULE": "COc1ccc(-c2c(N)c(=O)n(C)c3ccccc23)cc1", "GROUP_LABEL": "F"}

Note: attention shifts to another entry.
Just curious, what result did `Nc1cccnc1/C=N/NC(=S)NCCNC(=O)c1ccc(-n2nc(-c3ccccc3O)nc2-c2ccccc2O)cc1` get here?
T
